molecules and their reported growth
System: A498 renal
test: NCI-60 one-dose screen, 48 h (100 = growth as untreated, 0 = no growth, -100 = all killed)
assay.conditions: 10 µM unless noted
The panel holds about 83,000 compounds, 20% with a hit somewhere; the sample as a whole holds those more often.
Output spec: scalar in %, unitless text.

Below, each entry is followed by its recorded growth result.
# molecule, system.name, scale.unit, growth
measured = [
    ("C[n+]1ccccc1C[n+]1ccccc1", "A498 renal", "%", 109),
    ("N#CCc1cccc2ccccc12", "A498 renal", "%", 109),
    ("CC(C)N=C(N)/N=C(\\N)Nc1ccc2ccc3ccccc3c2c1", "A498 renal", "%", -73.7),
    ("O=[N+]([O-])c1ccc(Oc2ccccc2Cl)c([N+](=O)[O-])c1", "A498 renal", "%", 84.7),
    ("Cc1cc(C)c(C#N)c(Sc2nc(C)c([N+](=O)[O-])c(C)c2C#N)n1", "A498 renal", "%", 110),
]

Let's switch to this molecule now.
Prompt: Recall and state the measured growth for `CC(C)c1ccc(Nc2n[nH]c(=S)s2)cc1` .
Response: 94.6
